Values from patent US5912351A

assay summary: Water content at 75% relative humidity (Karl-Fisher)
Type: physicochemical
test parameters: 60° C., 15 days, HYDROCHLORIDE
Counter-ions that a name gives are not always drawn.
measured metric: Water Content (%)
Number only, in %; omit the unit.

// lookup Water Content for COC(=O)C1=C(C)NC(C)=C(C(=O)OC(C)(C)CN(C)CCC(c2ccccc2)c2ccccc2)C1c1cccc([N+](=O)[O-])c1 (stereo not shown) [Anhydrous, HYDROCHLORIDE]
0.77

* * *

assay summary: Water content at 75% relative humidity (Karl-Fisher)
Type: physicochemical
test parameters: 60° C., 0 days, HYDROCHLORIDE
Structures can show the parent of a compound that is named as a salt.
measured metric: Water Content (%)
Number only, in %; omit the unit.

// lookup Water Content for COC(=O)C1=C(C)NC(C)=C(C(=O)OC(C)(C)CN(C)CCC(c2ccccc2)c2ccccc2)C1c1cccc([N+](=O)[O-])c1 (stereo not shown) [Anhydrous, HYDROCHLORIDE]
0.28

* * *

assay summary: Water content at 75% relative humidity (Karl-Fisher)
Format: physicochemical
test parameters: 40° C., 8 days, HYDROCHLORIDE
Counter-ions that a name gives are not always drawn.
measured metric: Water Content (%)
Number only, in %; omit the unit.

// lookup Water Content for COC(=O)C1=C(C)NC(C)=C(C(=O)OC(C)(C)CN(C)CCC(c2ccccc2)c2ccccc2)C1c1cccc([N+](=O)[O-])c1 (stereo not shown) [Anhydrous, HYDROCHLORIDE]
0.3

* * *

assay summary: Water content at 75% relative humidity (Karl-Fisher)
Type: physicochemical
test parameters: 60° C., 15 days
Experimental: Samples of anhydrous lercanidipine hydrochloride and lercanidipine hydrochloride hemihydrate were placed in open polyethylene bags in flasks and heated, in the dark, at 60° C. and 75% relative humidity. The samples were checked for hygroscopicity by determination of the water content using the Karl-Fisher method. The samples were tested at 8 and 15 days. […]
Structures can show the parent of a compound that is named as a salt.
measured metric: Water Content (%)
Number only, in %; omit the unit.

// lookup Water Content for COC(=O)C1=C(C)NC(C)=C(C(=O)OC(C)(C)CN(C)CCC(c2ccccc2)c2ccccc2)C1c1cccc([N+](=O)[O-])c1 (stereo not shown) [Hemihydrate, Lercanidipine hydrochloride hemihydrate, reference compound]
4.04

* * *

assay summary: High temperature stress stability at 100° C., HPLC assay
Type: physicochemical
test parameters: solid, in the light, 24 hrs
Where a name gives a salt, the structure may show the parent alone.
measured metric: remaining at 24 h (%)
Number only, in %; omit the unit.

// lookup remaining at 24 h for COC(=O)C1=C(C)NC(C)=C(C(=O)OC(C)(C)CN(C)CCC(c2ccccc2)c2ccccc2)C1c1cccc([N+](=O)[O-])c1 (stereo not shown) [Anhydrous, HYDROCHLORIDE]
99.4

* * *

assay summary: Water content at 75% relative humidity (Karl-Fisher)
Assay type: physicochemical
test parameters: 60° C., 8 days
Structures can show the parent of a compound that is named as a salt.
measured metric: Water Content (%)
Number only, in %; omit the unit.

// lookup Water Content for COC(=O)C1=C(C)NC(C)=C(C(=O)OC(C)(C)CN(C)CCC(c2ccccc2)c2ccccc2)C1c1cccc([N+](=O)[O-])c1 (stereo not shown) [Hemihydrate, Lercanidipine hydrochloride hemihydrate, reference compound]
4

* * *

assay summary: Water content at 75% relative humidity (Karl-Fisher)
Type: physicochemical
test parameters: 40° C., 8 days
Structures can show the parent of a compound that is named as a salt.
measured metric: Water Content (%)
Number only, in %; omit the unit.

// lookup Water Content for COC(=O)C1=C(C)NC(C)=C(C(=O)OC(C)(C)CN(C)CCC(c2ccccc2)c2ccccc2)C1c1cccc([N+](=O)[O-])c1 (stereo not shown) [Hemihydrate, Lercanidipine hydrochloride hemihydrate, reference compound]
3.14

* * *

assay summary: Water content at 75% relative humidity (Karl-Fisher)
Format: physicochemical
test parameters: 40° C., 15 days, HYDROCHLORIDE
Structures can show the parent of a compound that is named as a salt.
measured metric: Water Content (%)
Number only, in %; omit the unit.

// lookup Water Content for COC(=O)C1=C(C)NC(C)=C(C(=O)OC(C)(C)CN(C)CCC(c2ccccc2)c2ccccc2)C1c1cccc([N+](=O)[O-])c1 (stereo not shown) [Anhydrous, HYDROCHLORIDE]
0.32

* * *

assay summary: Water content at 75% relative humidity (Karl-Fisher)
Format: physicochemical
test parameters: 60° C., 0 days
Where a name gives a salt, the structure may show the parent alone.
measured metric: Water Content (%)
Number only, in %; omit the unit.

// lookup Water Content for COC(=O)C1=C(C)NC(C)=C(C(=O)OC(C)(C)CN(C)CCC(c2ccccc2)c2ccccc2)C1c1cccc([N+](=O)[O-])c1 (stereo not shown) [Hemihydrate, Lercanidipine hydrochloride hemihydrate, reference compound]
1.42

* * *

assay summary: Water content at 75% relative humidity (Karl-Fisher)
Assay type: physicochemical
test parameters: 40° C., 0 days, HYDROCHLORIDE
Structures can show the parent of a compound that is named as a salt.
measured metric: Water Content (%)
Number only, in %; omit the unit.

// lookup Water Content for COC(=O)C1=C(C)NC(C)=C(C(=O)OC(C)(C)CN(C)CCC(c2ccccc2)c2ccccc2)C1c1cccc([N+](=O)[O-])c1 (stereo not shown) [Anhydrous, HYDROCHLORIDE]
0.28
